Reference for the values: patent EP4659811A1

- target under test: T1, VP1 pentamer of BKV genotype II (recombinant) (BK virus genotype II, UniProt P14996 30-300)
- T1 construct: also called GII; VP1 geno II pentamer; not shown: N-terminal His-tag of pESPRIT002; C-terminal biotin acceptor peptide (BAP) of pESPRIT002
- test description: ELISA, coated VP1 pentamer
outcome measure: EC50 (µg/mL)
Report the value in µg/mL with no unit label.

Completed entries (count: 5):
{"columns": ["binder", "u", "EC50"],
 "data": [
  ["antibody C11P7 (antibody, V domains shown) VH: EVQLVESGGGLVQPGGSLKLSCAASGFSLSNSEVHWVRQASGKGLEWIGRVRSRANRHATGYTESVNGRFTVSRDDSKNTASLQLESLKIEDTAVYYCTGVRGVISRYFAMDVWGQGTTVTVSS VL: QSALTQPASVSGSPGQSITISCTGTSSDVGAYNYVSWYRLRPGKDPHLIIYDVSHRPAGVSNRFSGSKSGNTASLTISGLQAEDEDEYYCCSYAHRGTPLFGGGTKLTVL", "µg/mL", 6],
  ["antibody C6P7 (antibody, V domains shown) VH: QVQLQESGPGLVRPSQTLSLTCTVSGGSMTSGSYYWSWIRQPAEKGLEWIGRIYTSGRTDYNPSLKSRVAMSIDTSKNQFSLRLTSVTAADTAVYYCARWGDSSAYYYVGDPWGRGTPVTVSS VL: DIQMTQSPSSLSASIGDRVTITCRASQNINTYLYWYQQKPGKAPQLLIYAASNLQTGAPSRFSGSGSGTDFTLTISSLQPADFATYYCQQSFSLPHTFGQGTKVEIK", "µg/mL", 0.55],
  ["antibody E5P6 (antibody, V domains shown) VH: EVQLVESGGGVVQPGRSLRLSCAASGFIFNNHGMHWVRQAPGKGLEWVAGISYDGKKEYYIGSVKGRFTISRDNSRNTLYLHMNGLRPEDTAVYYCAKEAYGSGSPCDYWGQGTLVTVSS VL: EIVLTQSPGTLSLSPGERATLSCRASQRVSSNYLAWYQQKPGQAPRLLIYGASSRATGIPDRFSGSGSGTDFTLTISRLEPEDFAVYYCQQYGTSPRSFGRGTKLEIK", "µg/mL", 6],
  ["antibody E11P6 (antibody, V domains shown) VH: EVQLVESGGGLVQPGGSLRLSCAASGFTFRSYSMDWVRQAPGKGLEWVSYISGSSNQKYYTDSVRGRFTISRDNAKNSLFLQMNSLRAEDSAVYYCAREDDILTPLYGMDVWGPGTTVTVSS VL: EIVLTQSPDTLSLSPGARATLSCRASQSVRSNYLAWYQQKPGQAPRLLIYGASSRATAIPDRFSGSGSGTDLTLTITRLEPEDFAVYYCHQYASSPRTFGQGTKVEIK", "µg/mL", 0.09],
  ["antibody G11P1 (antibody, V domains shown) VH: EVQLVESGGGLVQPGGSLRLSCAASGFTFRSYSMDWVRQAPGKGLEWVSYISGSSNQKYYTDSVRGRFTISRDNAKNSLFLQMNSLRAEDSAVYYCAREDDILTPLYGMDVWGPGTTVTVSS VL: EIVLTQSPDTLSLSPGARATLSCRASQSVRSNYLAWYQQKPGQAPRLLIYGASSRATAIPDRFSGSGSGTDFTLTITRLEPEDFAVYYCHQYASSPRTFGQGTKVEIK", "µg/mL", 0.055]
]}

Proceeding to the next binder to report its EC50.
Let me know recorded EC50 for antibody E9P7 (antibody, V domains shown) VH: EVQLVESGGGLVQPGGSLRLSCTASGFTFRSYTMDWVRQAPGKGLEWVSCISGSSNHKYYADSVRGRFTISRDNAKNSLLLQMNSLRAEDSAVYYCAREDDILTPLYGMDVWGPGTTVTVSS VL: EIVLTQSPDTLSLSPGARATLSCRASQSVRSNYLAWYQQKPGQAPRLLIYGASSRATAIPDRFSGSGSGTDFTLTITRLEPEDFAVYYCHQYGSSPRTFGQGTKVEIK , thanks.
0.1
